experiment: yeast display, Sf9 membrane polyspecificity reagent, FACS + sequencing; frameworks hold sequencing errors
endpoint.name: polyreactivity (PSR sort gate)

Below, 4 sequences whose answers are already recorded.
input.sequence | polyreactivity (PSR sort gate)
QVQIVESGGGLVQAGGSLRLSCPASGSTFTRYPMGWYSQAPGKERELVAAISYSGSSTYYADSVKGRFTISRDNAKNTVYLEMICLIPEDTAVYYCAAGKQAPAVNYGYYYWGQCTQVTVSS | low polyreactivity
QVQLVASGGGLVQAGGSHRLSCAASGRIFYYYAMGWYRQAPGKERELVASINSGGSTYYADSVKGPFTISRDNAKHTVYFQMNSLKPEDTACYYCAAGFQLVKGSLSGRAAYYYWGQGTQVTVSS | high polyreactivity
QVQLVESGGGLVQAVGSLRLSCAASGITFRWYTMGWYRQAPGKERELVASIRYGGGSTYYADSVKGRFTISRDNAKNTVYLQMNSLKPEDTAVYYCDAESAWTSPYDYWGQGTQVTVSS | high polyreactivity
QVQLVDSGGGLVQAGGILRLSCAASGRIFYYNTMGWSRQAPGKERELVARITYSGGRTYYADSVKGRFTISRDNAKNTVYLQMNSLKPEDTAVYYCAARRRTFYATSSAINGYDYWGQGTQVTVSS | high polyreactivity

Next item in the queue.
Bench note: what polyreactivity (PSR sort gate) did QVQLVESGGGLLQAGGSLRLSCAASGNTFVKYTMGWYRQAPGKERELVAAITWSGGSTSYADSVKGRFTISRDNAKNTVYLQMNSLKPEDTAVYYCAAAWSHSRWDTHDYWGQGTQVTVSS show?
low polyreactivity

* * *

test: yeast display, Sf9 membrane polyspecificity reagent, FACS + sequencing; frameworks hold sequencing errors
endpoint.name: polyreactivity (PSR sort gate)

input.sequence | polyreactivity (PSR sort gate)
QVQLVESGGGLVQAGCSLRLSCAASGRIFNDYAMGWYRQAPGKERELVAGISRRGGSTSYADSVKGRFTISRDNAKNTDYLQMNSQKAEDTAVYYCNADYWYDYYSTEYDYWGQGTQVTVSS | low polyreactivity
QVQLVESGGGLVQAGGSLRLSCAASGGIFWTYAMGWYRQAPWKERELVATITSGGSTNYADSVKGRFTISRDNAKNTVYLQMNSLKPEDTAVYYCNADWWWGYGYWGQGTQVTVSS | low polyreactivity
QVQIVESGGGLVQAGGILRLSCAASGRIFYTNAMGWYRKAPAKERELVAAIDNSDSTTYYADSVKWRYTISRDNAKNTVYLQMNSLKPEDTAVYYCAAESYLYTVTFEYWGQGTQVTVSS | high polyreactivity
QVHLVESGGGLVQAGGSLRLSSAASGRNFFNYAMGWYRQAPGKERELVAAISTGGSTTYADSVKGRFTISRDNAKNTVYLQMNSLKPEDTAVYYCARRGRRYRQYSRYYYWGQGTQVTVSS | high polyreactivity

For QVQLVESGGGLVQAGGSLRLSCAASGFTFPSYDMGWYRQAPGKERELVAAISWSGTSTYYADSVKGRFTISRDNAKNTVYLQMNSLKPEDTAVYYCNAQYSYLWGEYGYWGQGTQVTVSS , what is its reported polyreactivity (PSR sort gate)?
high polyreactivity

Reported polyreactivity (PSR sort gate), sequence QVQLVESGGGLVQAGGSLRLSCAASGFIFQRYAMGWYRQAPGKERELVAAITRTGGRTYYSDSVKGRFTISRDNAKNTVYLQMNSLKPEDTAVYYCAADRTMSYEYWGQGTKVTVSS : ____
high polyreactivity

So what does the record say about polyreactivity (PSR sort gate) for QVQLVESGGGLVQAGGSLRLSCAASGRTLTGYAMGWYRQAPGKERELVAAITWRDSTYYADSVKGRFTISRDNAKNSVYLQMNSLKPEDTAVYYCNADNATYFVYEFNYWGQGTQVTVSS ?
low polyreactivity

Fill blank: measured polyreactivity (PSR sort gate) of the sequence QVQHVESGEGLVQAGGSLRLSCAASGSIFAGYAMGWYRQAPGKERELVAAITSSGGSTYYADSVKGRFTISRDNAKNTVYLQMNSLKPEDTAVYYCAKDKLIFYRVGSDYWGQGTQVTVSS is ____.
low polyreactivity

Data request, read-out polyreactivity (PSR sort gate), for QVQLVESGGGLVQAGGSLRLSCAASGSIFRIYAMGWYRQAPGKERELVAAIRNSGRTYYADSVKGRFTISRDNAKNTVYLQMNSLKPEDTAVYYCAAVGGRLRGDRGGYWGQGTQVTVSS
high polyreactivity

Any idea what its polyreactivity (PSR sort gate) is? The sequence is QVQLVESGGGLVQAGGSLRLSCAASGRIFYYAMGWYRQAPGKEREFVAAISGSGGSTNYADSVKGRFTISRDNAKNTVYLQMNSLKPEDTAVYYCNAESWSWGFIYEYEYWGQGTQVTVSW
high polyreactivity

Quick check: polyreactivity (PSR sort gate) of QVQLLESGGGLVQAGGSLRLSCAASGRILTGYAMGWYRQAPGKERELFSSINWRGGSTYYADSVKGRFTISRDNAKNTVYLQMISLIPEDTAVYYCAARVLVTGTYYTIYDYWGQCTQVTVSS ?
high polyreactivity

* * *

assay: yeast display, Sf9 membrane polyspecificity reagent, FACS + sequencing; frameworks hold sequencing errors
endpoint.name: polyreactivity (PSR sort gate)

Use the examples below as a reference point.
input.sequence | observed
QVQLGESAGGLVQAGGSLRLSCAASGFTFYPYAMGWYRQAPGKEREFVAAITWRGASTYYADSVKGRFTISRDNGKNTVYLQMNSLKPEDTAVYYCNARWRVPRGYDYWGQGTQVTVSS | high polyreactivity
QVQLVESGGGLVQAGGGLRLSCAASGSIFRSNTMGWYRQAPGKERELVAGISYSGGSTYADSVKGRFTISRDNAKNTVYLQMNSLKPEDTAVYYCARRVYSYDVLYFSYYYWGQGTQVTVSS | low polyreactivity
QVQLVESGGGLVQAGGSLRLSCAASGFIFSPYAMGWYRQAPGKERELVAAISSGVGTRTYYADSVKGRFTISRDNAKNNVYLQINSLKPEDTAVYYCAARIPAWRAAERGGYWGQGTQVTVSS | high polyreactivity
QVQLVESGGGLVQAGGSHRLSCAASGLILGINAKGWYRQAPGTERELVAAISSSGGRTSYADSVKGRFTISRDNGKNTVYLQMNSLNPEDTAVYYCAKRRTTYSHYDYWGHGTQVTVSS | low polyreactivity

Value lookup for polyreactivity (PSR sort gate); key = QVQLVDSGGGLVQAGGSLRLSCAASGFIFPYYAMGWYRQAPGKERELVAAITRGGRTYYADSVKGRFTISRDNAKNTVYLQMNSLKPEDTAVYYCAARAGLDGEMDYWGQGTQVTVSS
high polyreactivity

* * *

test: yeast display, Sf9 membrane polyspecificity reagent, FACS + sequencing; frameworks hold sequencing errors
endpoint.name: polyreactivity (PSR sort gate)

Answered cases to consult:
input.sequence | polyreactivity (PSR sort gate)
QVQLVESGGGLVQAGGSLRLSCAASGFTFYRNAMGWYRQAPGKERELVARISRGGSTNYADSVKGRFTISRDNAKNTVYLQMNSLKPEDTAVYYCNRDYYVGRYDYWGQGTQVTVSS | high polyreactivity
QDQLVESGGGLVQAGGSLSLSCAASGSTFQPYTMGWYRQAPGKERELVAAITGRGGSTYYADSVKGRFTISRDNAKNTVYLQMNSLKPEDTAVYYCAAGAYRRNKSDYYYWGQGTQVTVSS | low polyreactivity
QVQLVESGGGLVQAGGSLRLSCAASGISFGNYAMGWYRQAPGKERELVATISRSGGSTYYADSVKGRFTISRDNAKNTVYLQMNSLKPEDTAVYYCAAQDARRIVYYRYYYWGQGTQVTVSS | high polyreactivity
QVQLVESGGGLVQAGGSLRLSCAASGSTFSFYDMGWYRQAPGKETELVDAITGSGGTTYYADSVKGRFTISRDNAKNTVYLKMNSLIPEDTAVYFCAADSLESYPDYEYDYWGQGTQVTVSS | low polyreactivity

May I ask what polyreactivity (PSR sort gate) has been recorded for QVQLVESGGGLVQAGGSLRLSCAASGLILSSNAMGWYRQAPGKERELVAAITWDGDRTYADSVKGRFTISRDNAKNTVYLQMNSLKPEDTAVYYCAADKQYYWYDWSYVYWGQGTQVTVSS ?
low polyreactivity

* * *

test: yeast display, Sf9 membrane polyspecificity reagent, FACS + sequencing; frameworks hold sequencing errors
endpoint.name: polyreactivity (PSR sort gate)

Known results for sequences:
input.sequence | polyreactivity (PSR sort gate)
QVQLVESGGGLVQAGGSLRLSCAASGFILAYYAMGWYRQSPGKERELVAAISIGSSTDYADSVKGRFTISRDNAKNTVYLQMNSLKPEDTAVYYCAARDYYYEYDYWGQGTQVTVSS | low polyreactivity
QVQLVESGGGLVQAGGSLRLSCAASGSIFVTYAMGSYRQAPGKERELVAAITSIGGTTYYSDSVKGRFTISRDNAKNTVYLQMNSLKPEDTAVYYCAVDGGEFSSYGYWGQGTEVTVSS | low polyreactivity
QVQLVESGGGLVQAGGSLRLSCAASGLIFLAYTMGWYRLAPGKVRELVAAISYSDGSTYYADSVKARFTISRDNANNTVYVQMNSLKPEDTAVYYCAARPRPPLRSYDYWGQGTQVTVSA | low polyreactivity
QVQLVESGGGLVQAGGSLRLSCAASGRIFYYNAMGWYRQAPGKERELVAAIRSSGGTTYYADSVKGRFTISRDNAKNTVYLQMNSLKPEDTAVYYCNARYWVYYVYEYDSWGQGTQVTVSS | low polyreactivity
QVQIVESGGGLVQAGGSLRLSCAASGRTIYYYTMGWYIQAPGKERELVAAITHGGSTYYADSVKGRFTISRDNAKNTVYLQMNSLNPEDTAVYYCNAVYDYPYEYWGQGTQVTVSS | high polyreactivity
QVQLVESGGGLVQAGGSLRLSCAASGSTFRGYAMGWYRQAPGKEREIVAAISRRGGTTYYADSVKGRFTISRDNAKNTVYLQMNSLKPEDTAVYYCNKVYYQHYLAFDYWGQGTQVTVSS | high polyreactivity

Query (sequence): QVQLVESGGGLVQAGGSLRLSFAASGYTFAGNAMGWYRQAPGKERELVAVITYSGVSTYYADSVKGRFTISRDNAKNTVYLQMNSLKPEDTAVYYCNAVRERYASDYWGQGTQVTVSS ; field requested: polyreactivity (PSR sort gate)
low polyreactivity

Request the reported polyreactivity (PSR sort gate) associated with QVQLVESGGGLVQAGGSLRLSCAASGSIFVGTAMGWYRQAPGKERELVADINSGGSTNYADSVKGRVTISRDNAKNTVYLQMNSLKPEDTAVSYCAKSAVSGTYDYWGQGTQVTVSS
low polyreactivity

Origin of values: the nanobody polyreactivity screen of Harvey et al. (2022)
